Test system: HSSY-II complex spheroid growth, percent test/control
Experiment: Anticancer human tumor HSSY-II cell line growth inhibition [Asc];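 also: spheroids exposed to drug for 7 days before reading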
Conditions: curve of first compound; second compound 0.0316 µM
outcome measure: pIC50
When answering, recall that pIC50 equals minus log10 of the concentration in mol/L, and write that number alone.

COc1c(OCCCN2CCOCC2)ccc2c3n(c(=NC(=O)c4cnc(N)nc4)nc12)CCN3 + CNC(C)C(=O)NC1CN(S(=O)(=O)c2cccc(S(=O)(=O)N3CCC4CCC(C(=O)NC(c5ccccc5)c5ccccc5)N4C(=O)C(NC(=O)C(C)NC)C3)c2)CCC2CCC(C(=O)NC(c3ccccc3)c3ccccc3)N2C1=O : 7.35

(Q) Find the recorded pIC50 belonging to C=C(F)C(=O)N1CCN(c2nc(OCC3CCCN3C)nc3c2CCN(c2cccc4cccc(Cl)c24)C3)CC1CC#N (stereo not drawn) + CNC(C)C(=O)NC1CN(S(=O)(=O)c2cccc(S(=O)(=O)N3CCC4CCC(C(=O)NC(c5ccccc5)c5ccccc5)N4C(=O)C(NC(=O)C(C)NC)C3)c2)CCC2CCC(C(=O)NC(c3ccccc3)c3ccccc3)N2C1=O and report it.
(A) 5.99

(Q) Which pIC50 is listed for C#Cc1c(F)ccc2cc(O)cc(-c3ncc4c(N5CC6CCC(C5)N6)nc(OCC56CCCN5CC(F)C6)nc4c3F)c12 (stereo not drawn) + CNC(C)C(=O)NC1CN(S(=O)(=O)c2cccc(S(=O)(=O)N3CCC4CCC(C(=O)NC(c5ccccc5)c5ccccc5)N4C(=O)C(NC(=O)C(C)NC)C3)c2)CCC2CCC(C(=O)NC(c3ccccc3)c3ccccc3)N2C1=O ?
(A) 5.05
